Overview of reported kd across a group of molecules:
Target: T1, Human in house BCMA (Homo sapiens, UniProt Q02223)
T1 construct: CD33 signal peptide (N); TEV site (internal); Fc (C); made in house
T1 sequence (Q02223 with tags, fused parts or gaps limits assumed): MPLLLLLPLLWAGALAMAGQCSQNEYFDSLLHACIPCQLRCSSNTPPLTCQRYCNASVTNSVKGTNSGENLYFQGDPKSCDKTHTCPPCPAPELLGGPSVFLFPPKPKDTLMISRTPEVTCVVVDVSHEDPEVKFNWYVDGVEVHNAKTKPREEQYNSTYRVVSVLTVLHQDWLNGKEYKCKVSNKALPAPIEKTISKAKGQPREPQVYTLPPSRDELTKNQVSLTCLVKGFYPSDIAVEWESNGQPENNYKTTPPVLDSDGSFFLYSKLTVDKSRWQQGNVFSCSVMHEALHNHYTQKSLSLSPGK
Experiment: ProteOn analysis of CA8 chimeric and humanised constructs, human in house BCMA
Assay type: binding
Conditions: Run 1, Human in house BCMA, ProteOn, 25° C.; in s-1 (unit assumed)
// keep it numeric: no unit symbol after the value

Observe how each entry below is paired with its result.
// kd lookup, molecule = CA8 humanised J4M1: humanised CA8 anti-BCMA antibody, VH J4 (SEQ ID NO:19) + VL M1 (SEQ ID NO:33) (antibody, V domains shown, Humansed antibody sequence) VH: QVQLVQSGAEVKKPGSSVKVSCKGSGYTFTNYWMHWVRQAPGQGLEWIGATYRGHSDTYYNQKFKGRATLTADTSTSTAYMELSSLRSEDTAVYYCTRGAIYNGYDVLDNWGQGTLVTVSS VL: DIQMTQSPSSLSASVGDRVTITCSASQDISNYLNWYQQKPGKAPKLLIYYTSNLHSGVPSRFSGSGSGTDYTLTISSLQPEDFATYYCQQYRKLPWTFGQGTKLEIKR , result: 7.04E−05

// kd lookup, molecule = CA8 humanised J5M1: humanised CA8 anti-BCMA antibody, VH J5 (SEQ ID NO:21) + VL M1 (SEQ ID NO:33) (antibody, V domains shown, Humansed antibody sequence) VH: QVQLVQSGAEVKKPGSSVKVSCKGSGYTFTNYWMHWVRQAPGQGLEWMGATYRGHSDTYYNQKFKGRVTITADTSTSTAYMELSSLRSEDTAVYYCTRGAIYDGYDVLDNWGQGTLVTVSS VL: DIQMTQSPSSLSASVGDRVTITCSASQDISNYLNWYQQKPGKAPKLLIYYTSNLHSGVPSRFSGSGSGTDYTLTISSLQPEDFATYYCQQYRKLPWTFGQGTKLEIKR , result: 4.32E−05

// kd lookup, molecule = CA8 humanised J1M2: humanised CA8 anti-BCMA antibody, VH J1 (SEQ ID NO:13) + VL M2 (SEQ ID NO:35) (antibody, V domains shown, Humansed antibody sequence) VH: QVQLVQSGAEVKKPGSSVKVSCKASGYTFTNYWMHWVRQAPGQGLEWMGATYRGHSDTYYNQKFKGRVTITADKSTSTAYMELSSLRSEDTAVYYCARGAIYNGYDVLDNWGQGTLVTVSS VL: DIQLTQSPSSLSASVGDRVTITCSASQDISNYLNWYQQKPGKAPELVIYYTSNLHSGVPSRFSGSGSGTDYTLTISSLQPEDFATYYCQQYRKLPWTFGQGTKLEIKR , result: 2.46E−04

// kd lookup, molecule = CA8 humanised J0M2: humanised CA8 anti-BCMA antibody, VH J0 (SEQ ID NO:11) + VL M2 (SEQ ID NO:35) (antibody, V domains shown, Humansed antibody sequence) VH: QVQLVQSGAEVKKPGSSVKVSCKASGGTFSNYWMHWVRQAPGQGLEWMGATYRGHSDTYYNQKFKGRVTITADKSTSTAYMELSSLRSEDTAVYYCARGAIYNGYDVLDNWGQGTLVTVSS VL: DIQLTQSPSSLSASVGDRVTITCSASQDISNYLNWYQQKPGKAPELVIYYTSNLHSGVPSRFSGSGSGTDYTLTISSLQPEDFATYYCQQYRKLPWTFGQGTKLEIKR , result: 6.97E−05

// kd lookup, molecule = S307118G03 humanised H2L1: humanised S307118G03, VH H2 (SEQ ID NO:81) + VL L1 (SEQ ID NO:91) (antibody, V domains shown, Humansed antibody sequence) VH: QVQLVQSGAEVKKPGSSVKVSCKASGYTFTDYYMKWVRQAPGQGLEWMGEIYPNNGGITYNQKFKGRVTITADKSTSTAYMELSSLRSEDTAVYYCANGYEFVYWGQGTLVTVSS VL: DIQMTQSPSSLSASVGDRVTITCSASQGISNYLNWYQQKPGKAPKLLIYYTSSLHSGVPSRFSGSGSGTDYTLTISSLQPEDFATYYCQQYSKLPWTFGQGTKLEIKR , result: 2.15E−03

Continuing:
// kd lookup, molecule = S307118G03 humanised H3L0: humanised S307118G03, VH H3 (SEQ ID NO:83) + VL L0 (SEQ ID NO:89) (antibody, V domains shown, Humansed antibody sequence) VH: QVQLVQSGAEVKKPGSSVKVSCKASGYTFTDYYMKWVRQAPGQGLEWIGEIYPNNGGITYNQKFKGRATLTVDKSTSTAYMELSSLRSEDTAVYYCANGYEFVYWGQGTLVTVSS VL: DIQMTQSPSSLSASVGDRVTITCSASQGISNYLNWYQQKPGKAPKLLIYYTSSLHSGVPSRFSGSGSGTDFTLTISSLQPEDFATYYCQQYSKLPWTFGQGTKLEIKR , result: 1.52E−03

// kd lookup, molecule = CA8 humanised J3M1: humanised CA8 anti-BCMA antibody, VH J3 (SEQ ID NO:17) + VL M1 (SEQ ID NO:33) (antibody, V domains shown, Humansed antibody sequence) VH: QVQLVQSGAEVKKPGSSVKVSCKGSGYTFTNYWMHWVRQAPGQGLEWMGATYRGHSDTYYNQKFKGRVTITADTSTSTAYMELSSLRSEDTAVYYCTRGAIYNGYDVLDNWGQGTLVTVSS VL: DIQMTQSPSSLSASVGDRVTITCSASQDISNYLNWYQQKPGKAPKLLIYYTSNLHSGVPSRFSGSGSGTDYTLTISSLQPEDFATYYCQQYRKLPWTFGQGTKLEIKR , result: 1.25E−04
